B1: Hairpin Ribozyme (parent)
chain: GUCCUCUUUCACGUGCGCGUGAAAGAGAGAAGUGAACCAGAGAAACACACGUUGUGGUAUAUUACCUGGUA

Variants of: B1
Assay: self-cleavage, relative activity (ratio to wild type); higher = more cleavage; co-transcriptional
So I've got a bunch of variants here, and I need their self-cleavage values.

Examples from the recorded data:
[
  {
    "variant.spec": "A22G C37G",
    "observed.result": 0.291
  },
  {
    "variant.spec": "G17U A61G",
    "observed.result": 0.117
  },
  {
    "variant.spec": "A31C A45C",
    "observed.result": 0.0871
  },
  {
    "variant.spec": "A11G G29A",
    "observed.result": 0.101
  },
  {
    "variant.spec": "U62G A71U",
    "observed.result": 0.367
  },
  {
    "variant.spec": "C10A G13A",
    "observed.result": 0.501
  }
]

Hi! Can you tell me self-cleavage for each of these variants?
1. C4G A49C
2. A26G A44G
3. A43U U63C
4. A39U A45C

### Response
0.161
0.241
0.219
0.123

Give one value of self-cleavage per listed variant.
1. C10G A64G
2. U9A G15A

### Response
1. 0.397
2. 0.704
